molecular target: T1, MET928 (cMET protein derived from construct 25-928) (human, UniProt P08581 25-928); assay: ELISA, soluble scFv
T1 construct: MET ectodomain, residues 1-24 are the leader; produced in Lec 8 cells; background text says the ectodomain is furin-cleaved into alpha (25-307) and beta chains; biotinylated form used in selections; also called MET928 extracellular domain; Met extracellular domain
T1 sequence (P08581 25-928): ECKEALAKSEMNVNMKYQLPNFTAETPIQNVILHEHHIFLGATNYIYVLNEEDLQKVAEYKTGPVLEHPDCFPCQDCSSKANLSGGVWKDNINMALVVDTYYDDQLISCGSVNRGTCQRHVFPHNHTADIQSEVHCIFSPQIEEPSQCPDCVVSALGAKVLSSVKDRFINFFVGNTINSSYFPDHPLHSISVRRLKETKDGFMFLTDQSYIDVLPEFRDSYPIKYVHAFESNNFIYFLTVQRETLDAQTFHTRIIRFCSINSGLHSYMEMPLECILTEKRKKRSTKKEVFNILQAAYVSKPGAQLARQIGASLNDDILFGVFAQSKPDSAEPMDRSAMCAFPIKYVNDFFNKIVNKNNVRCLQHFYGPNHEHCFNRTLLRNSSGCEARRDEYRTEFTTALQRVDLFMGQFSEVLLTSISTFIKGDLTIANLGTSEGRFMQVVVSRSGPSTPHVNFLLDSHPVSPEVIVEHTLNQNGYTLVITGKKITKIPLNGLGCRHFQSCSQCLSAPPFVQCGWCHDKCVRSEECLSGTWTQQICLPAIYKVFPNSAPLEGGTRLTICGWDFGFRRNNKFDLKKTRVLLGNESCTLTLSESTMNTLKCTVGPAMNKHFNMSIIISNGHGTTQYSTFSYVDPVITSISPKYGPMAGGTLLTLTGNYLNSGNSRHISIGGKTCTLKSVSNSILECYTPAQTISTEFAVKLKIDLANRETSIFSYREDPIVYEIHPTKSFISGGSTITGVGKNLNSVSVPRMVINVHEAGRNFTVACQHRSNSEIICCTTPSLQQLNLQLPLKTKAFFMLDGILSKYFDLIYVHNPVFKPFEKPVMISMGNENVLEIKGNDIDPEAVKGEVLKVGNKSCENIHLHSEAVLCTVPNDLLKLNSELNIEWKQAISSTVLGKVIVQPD
Value type: binding result

1. 109_H7 (scFv, not shown: 6xHis/tri-FLAG tags) scFv: QMQLVQSGAEVKKPGAPVKVSCKVSGYTFTDYYMHWVQQAPGKGLEWMGLVDPEDGETIYAEKFQGRVTITADTSTDTAYMELSSLRSEDTAVYYCATDATTPYWFPRWWGQGTLVTVSSLEGGGGSGGGGSGGGASDIQMTQSPSSLSASVGDRVTITCQASQDISNYLNWYQQKPGRAPKVLIYDASNLETGVPSRFSGSGSGTEFTLTISNLRPDDFATYYCQQGDSFPLTFGGGTKVEIK = binds
2. 108_G1 (scFv, not shown: 6xHis/tri-FLAG tags) scFv: QMQLVQSGAEVKKPGAPVKVSCKVSGYTFTDYYMHWVQQAPGKGLEWMGLVDPEDGETIYAEKFQGRVTITADTSTDTAYMELSSLRSEDTAVYYCATDATTPYWFPRMWGQGTLVTVSSLEGGGGSGGGGSGGGASDIQMTQSPSSLSASVGDRVTITCQASQDISNYLNWYQQKPGRAPKVLIYDASNLETGVPSRFSGSGSGTEFTLTISNLRPDDFATYYCQQGDSFPLTFGGGTKVEIK = binds
3. 107_B11 (scFv, not shown: 6xHis/tri-FLAG tags) scFv: QMQLVQSGAEVKKPGAPVKVSCKVSGYTFTDYYMHWVQQAPGKGLEWMGLVDPEDGETIYAEKFQGRVTITADTSTDTAYMELSSLRSEDTAVYYCATDATTPYWGMAMWGQGTLVTVSSLEGGGGSGGGGSGGGASDIQMTQSPSSLSASVGDRVTITCQASQDISNYLNWYQQKPGRAPKVLIYDASNLETGVPSRFSGSGSGTEFTLTISNLRPDDFATYYCQQGDSFPLTFGGGTKVEIK = binds
